Measured % Inhib CDK4/D @ 0.1 μM by item
Target: CDK4/cyclin D3 (Homo sapiens)
Construct: made in house; host or cells: insect cells (baculovirus co-infection)
Sequence (P11802 whole entry): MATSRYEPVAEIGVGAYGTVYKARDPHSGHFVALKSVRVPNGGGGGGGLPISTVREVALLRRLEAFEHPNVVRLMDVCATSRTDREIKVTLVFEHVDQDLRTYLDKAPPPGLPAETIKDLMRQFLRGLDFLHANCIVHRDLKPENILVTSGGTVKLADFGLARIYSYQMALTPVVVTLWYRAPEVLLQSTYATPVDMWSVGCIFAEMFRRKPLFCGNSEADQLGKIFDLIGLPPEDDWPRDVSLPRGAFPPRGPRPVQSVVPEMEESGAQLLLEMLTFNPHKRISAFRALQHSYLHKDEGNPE
Sequence (P30281 1-264 partner limits assumed): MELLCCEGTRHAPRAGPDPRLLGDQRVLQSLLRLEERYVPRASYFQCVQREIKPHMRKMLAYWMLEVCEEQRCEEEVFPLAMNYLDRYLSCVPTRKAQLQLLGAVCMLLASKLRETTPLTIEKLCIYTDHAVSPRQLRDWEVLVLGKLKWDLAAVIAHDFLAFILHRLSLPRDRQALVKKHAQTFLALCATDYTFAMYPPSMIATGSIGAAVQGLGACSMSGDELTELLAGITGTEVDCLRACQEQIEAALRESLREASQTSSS
Assay: Inhibition of CDK4/Cyclin D retinoblastoma kinase activity
Format: biochemical
Conditions: test compound at 0.1 μM; 0.1 µM
Write down the numeric answer in % and omit the unit.

NC(=O)CS(=O)(=O)c1ccc(Nc2nc(N)c(C(=O)c3c(Cl)cccc3Cl)s2)cc1 = 21

Returns the measured % Inhib CDK4/D @ 0.1 μM for the input compound. Input: Nc1nc(Nc2ccc(S(=O)(=O)CC(=O)Nc3ccccc3)cc2)sc1C(=O)c1c(Cl)cccc1Cl
25

What about this compound? CC1(CS(=O)(=O)c2ccc(Nc3nc(N)c(C(=O)c4c(Cl)cccc4Cl)s3)cc2)CO1 (stereo not shown) [DD(220)]
30

What about CC(C)CCOC(=O)CS(=O)(=O)c1ccc(Nc2nc(N)c(C(=O)c3c(Cl)cccc3Cl)s2)cc1 [DD(193)] ?
31
